System: OVCAR-8 ovarian
EXPERIMENT_NOTES: NCI-60 one-dose screen, 48 h (100 = growth as untreated, 0 = no growth, -100 = all killed)
PARTICULARS: 10 µM unless noted
Compounds without any hit were thinned out: in the full panel of roughly 83,000, 20% have a hit.

- COMPOUND: "Cc1cc(O)cc2c1[C@H]1CC[C@]3(C)[C@@H](O)CC[C@H]3[C@@H]1C=C2"
  EXPERIMENTAL_TARGET: "OVCAR-8 ovarian"
  UNIT_NAME: "%"
  growth: 95.3
- COMPOUND: "N#CCCN1CCN(CCC#N)C1=S"
  EXPERIMENTAL_TARGET: "OVCAR-8 ovarian"
  UNIT_NAME: "%"
  growth: 98.1
- COMPOUND: "COC(=O)c1c2c(c(C)[n+]([O-])c1C)C(=O)C=C(NCc1ccc(F)cc1)C2=O"
  EXPERIMENTAL_TARGET: "OVCAR-8 ovarian"
  UNIT_NAME: "%"
  growth: 2.54
- COMPOUND: "COc1ccc(/C=N/OCC(O)CNCc2ccccc2)cc1OC1CCCC1 (stereo not given)"
  EXPERIMENTAL_TARGET: "OVCAR-8 ovarian"
  UNIT_NAME: "%"
  growth: 104
- COMPOUND: "CCCCCCCCCCCCCCNc1nc(CO)ncc1-c1ccc(C(F)(F)F)cc1"
  EXPERIMENTAL_TARGET: "OVCAR-8 ovarian"
  UNIT_NAME: "%"
  growth: 99.5
- COMPOUND: "COc1ccc(-c2cc(=O)oc3c4c(ccc23)OCN(Cc2ccc(F)cc2)C4)cc1"
  EXPERIMENTAL_TARGET: "OVCAR-8 ovarian"
  UNIT_NAME: "%"
  growth: 56.7
- COMPOUND: "CC(C)NCC(O)COc1ccc(CCOCC2CC2)cc1 (stereo not given)"
  EXPERIMENTAL_TARGET: "OVCAR-8 ovarian"
  UNIT_NAME: "%"
  growth: 93
- COMPOUND: "CCCCC(O)Cn1ncc(C(=O)OCC)c1NC(=O)NCc1ccccc1C(F)(F)F (stereo not given)"
  EXPERIMENTAL_TARGET: "OVCAR-8 ovarian"
  UNIT_NAME: "%"
  growth: 98.7
- COMPOUND: "COc1cccc(C2CC(=O)Nc3cc4c(cc32)OCO4)c1OC (stereo not given)"
  EXPERIMENTAL_TARGET: "OVCAR-8 ovarian"
  UNIT_NAME: "%"
  growth: 98.6
- COMPOUND: "Cc1c(NCC(=O)Nc2nc3ccccc3[nH]2)c(=O)n(-c2ccccc2)n1C"
  EXPERIMENTAL_TARGET: "OVCAR-8 ovarian"
  UNIT_NAME: "%"
  growth: 99.9
- COMPOUND: "O=c1oc2ccccc2cc1-c1csc(N/N=C/c2cc3ccccc3nc2Cl)n1"
  EXPERIMENTAL_TARGET: "OVCAR-8 ovarian"
  UNIT_NAME: "%"
  growth: 103
- COMPOUND: "COc1ccccc1CNCCCCCCCCCCCCN1C(=O)c2ccc3c4c(ccc(c24)C1=O)C(=O)N(CCCCCCCCCCCCNCc1ccccc1OC)C3=O"
  EXPERIMENTAL_TARGET: "OVCAR-8 ovarian"
  UNIT_NAME: "%"
  growth: -60.9
- COMPOUND: "COc1cc(OCc2cccc(-c3ccc(C(O)c4nccs4)cc3)c2C)cc(OC)c1C=O (stereo not given)"
  EXPERIMENTAL_TARGET: "OVCAR-8 ovarian"
  UNIT_NAME: "%"
  growth: 59.8
- COMPOUND: "C[C@@H](Oc1cc(-c2cnn(C3CC4(CNC4)C3)c2)cnc1N)c1c(Cl)ccc(F)c1Cl"
  EXPERIMENTAL_TARGET: "OVCAR-8 ovarian"
  UNIT_NAME: "%"
  growth: 48.9
- COMPOUND: "C[C@@H](Oc1cc(-c2cnn(C3CC4(CCNCC4)C3)c2)cnc1N)c1c(F)ccc(Cl)c1Cl"
  EXPERIMENTAL_TARGET: "OVCAR-8 ovarian"
  UNIT_NAME: "%"
  growth: 39.8
- COMPOUND: "O=C1N/C(=C\\c2ccccc2)c2ncccc21"
  EXPERIMENTAL_TARGET: "OVCAR-8 ovarian"
  UNIT_NAME: "%"
  growth: 110
- COMPOUND: "CC1=CN2C(=NC3=C(CCCC/C3=C\\c3ccccc3)C2c2ccccc2)S1 (stereo not given)"
  EXPERIMENTAL_TARGET: "OVCAR-8 ovarian"
  UNIT_NAME: "%"
  growth: 102
- COMPOUND: "CC(C)(C)[Si](C)(C)OC1[C@@H](COC(=O)NC(=O)CCl)O[C@@H](n2cnc3c(N)ncnc32)[C@H]1O[Si](C)(C)C(C)(C)C (stereo not given in full)"
  EXPERIMENTAL_TARGET: "OVCAR-8 ovarian"
  UNIT_NAME: "%"
  growth: -7.49
- COMPOUND: "CCCCC(CCCC)(S(=O)(=O)CC)S(=O)(=O)CC"
  EXPERIMENTAL_TARGET: "OVCAR-8 ovarian"
  UNIT_NAME: "%"
  growth: 102
- COMPOUND: "Oc1cccc(Nc2nc(-c3ccccn3)cs2)c1"
  EXPERIMENTAL_TARGET: "OVCAR-8 ovarian"
  UNIT_NAME: "%"
  growth: 106
